Measured solubility of individual entries
Assay: physchem
Details: PBS buffer, pH 7.4
Description: Solubility of the compound in pH 7.4 PBS buffer
Observation type: solubility (µM)

> print(dat)
                           substance.smiles  measured.value
1  CC(C)(C[C@H]1CN(S(=O)(=O)c2cccc(C(F)(F)F)c2)c2cc(-c3cc(F)cc(OC(F)F)c3)ccc2O1)C(=O)O              10
2  CC(C)(C[C@H]1CN(S(=O)(=O)c2cccc(C(F)(F)F)c2)c2cc(-c3cc(F)ccc3F)ccc2O1)C(=O)O              13
3  O=C(O)C1(C[C@H]2CN(S(=O)(=O)c3cccc(C(F)(F)F)c3)c3cc(-c4cc(F)ccc4F)ccc3O2)COC1             201
4  C/C(=C\c1ccc2c(c1)N(S(=O)(=O)c1cccc(C(F)(F)F)c1)C[C@H](CCC(=O)O)O2)c1ccccc1Cl             309
